- Tested on: anti-peptide mouse IgG
- assay.details: Anti-peptide immune response assay (Elisa) on serum of immunized mice
- Format: in vivo, Male C57BL/6 mice
- test.context: column 9; serum dilution 1:1000; read at 450 nm
Where no end group is shown, it is not given here.
attribute.measured: Elisa Test pep after B16FO given

* -D-R-D-K-L-F-G-F-C-P-T-R-A-D-S- (DRDKLFGFCPTRADS; also: biotinylated, KLH conjugate) [MMP-9 A-3, MMP-9 oligopeptide, biotinylated and conjugated to KLH for immunization] | .448
* -C-H-F-P-F-I-F-E-G-R-S-Y-S-A-C- (CHFPFIFEGRSYSAC; cysteine pairing not given here; also: biotinylated, KLH conjugate) [MMP-9 A-1, MMP-9 oligopeptide, biotinylated and conjugated to KLH for immunization] | 3.624
* -C-P-R-K-P-K-W-D-K-C- (CPRKPKWDKC; cysteine pairing not given here; also: biotinylated, KLH conjugate) [MMP-2 A-4, MMP-2 oligopeptide, biotinylated and conjugated to KLH for immunization] | .706
* -D-T-D-D-R-F-G-F- (DTDDRFGF; also: biotinylated, KLH conjugate) [M MP-9 A-2, MMP-9 oligopeptide, biotinylated and conjugated to KLH for immunization] | .526

* * *

Overview of reported Elisa Test pep after B16FO given across a group of substances:
- Tested on: anti-peptide mouse IgG
- assay.details: Anti-peptide immune response assay (Elisa) on serum of immunized mice
- Format: in vivo, Male C57BL/6 mice
- test.context: column 12; serum dilution 1:10000; read at 450 nm
Where no end group is shown, it is not given here.
attribute.measured: Elisa Test pep after B16FO given

• -C-P-R-K-P-K-W-D-K-C- (CPRKPKWDKC; cysteine pairing not given here; also: biotinylated, KLH conjugate) [MMP-2 A-4, MMP-2 oligopeptide, biotinylated and conjugated to KLH for immunization] = .167
• -D-T-D-D-R-F-G-F- (DTDDRFGF; also: biotinylated, KLH conjugate) [M MP-9 A-2, MMP-9 oligopeptide, biotinylated and conjugated to KLH for immunization] = .348
• -D-R-D-K-L-F-G-F-C-P-T-R-A-D-S- (DRDKLFGFCPTRADS; also: biotinylated, KLH conjugate) [MMP-9 A-3, MMP-9 oligopeptide, biotinylated and conjugated to KLH for immunization] = .296
• -C-H-F-P-F-I-F-E-G-R-S-Y-S-A-C- (CHFPFIFEGRSYSAC; cysteine pairing not given here; also: biotinylated, KLH conjugate) [MMP-9 A-1, MMP-9 oligopeptide, biotinylated and conjugated to KLH for immunization] = .22

* * *

- System: anti-peptide mouse IgG
- assay.details: Anti-peptide immune response assay (Elisa) on serum of immunized mice
- Format: in vivo, Male C57BL/6 mice
- test.context: column 11; serum dilution 1:100; read at 450 nm
Where no end group is shown, it is not given here.
attribute.measured: Elisa Test pep after B16FO given

- -C-H-F-P-F-I-F-E-G-R-S-Y-S-A-C- (CHFPFIFEGRSYSAC; cysteine pairing not given here; also: biotinylated, KLH conjugate) [MMP-9 A-1, MMP-9 oligopeptide, biotinylated and conjugated to KLH for immunization]: 3.820
- -D-T-D-D-R-F-G-F- (DTDDRFGF; also: biotinylated, KLH conjugate) [M MP-9 A-2, MMP-9 oligopeptide, biotinylated and conjugated to KLH for immunization]: 3.465
- -C-P-R-K-P-K-W-D-K-C- (CPRKPKWDKC; cysteine pairing not given here; also: biotinylated, KLH conjugate) [MMP-2 A-4, MMP-2 oligopeptide, biotinylated and conjugated to KLH for immunization]: 2.278
- -D-R-D-K-L-F-G-F-C-P-T-R-A-D-S- (DRDKLFGFCPTRADS; also: biotinylated, KLH conjugate) [MMP-9 A-3, MMP-9 oligopeptide, biotinylated and conjugated to KLH for immunization]: 2.063

* * *

- System: anti-peptide mouse IgG
- assay.details: Anti-peptide immune response assay (Elisa) on serum of immunized mice
- Assay type: in vivo, Male C57BL/6 mice
- test.context: column 12; serum dilution 1:100; read at 450 nm
Where no end group is shown, it is not given here.
attribute.measured: Elisa Test pep after B16FO given

• -D-T-D-D-R-F-G-F- (DTDDRFGF; also: biotinylated, KLH conjugate) [M MP-9 A-2, MMP-9 oligopeptide, biotinylated and conjugated to KLH for immunization] = 3.86
• -C-H-F-P-F-I-F-E-G-R-S-Y-S-A-C- (CHFPFIFEGRSYSAC; cysteine pairing not given here; also: biotinylated, KLH conjugate) [MMP-9 A-1, MMP-9 oligopeptide, biotinylated and conjugated to KLH for immunization] = 3.87
• -D-R-D-K-L-F-G-F-C-P-T-R-A-D-S- (DRDKLFGFCPTRADS; also: biotinylated, KLH conjugate) [MMP-9 A-3, MMP-9 oligopeptide, biotinylated and conjugated to KLH for immunization] = 3.84
• -C-P-R-K-P-K-W-D-K-C- (CPRKPKWDKC; cysteine pairing not given here; also: biotinylated, KLH conjugate) [MMP-2 A-4, MMP-2 oligopeptide, biotinylated and conjugated to KLH for immunization] = 1.621

* * *

- Tested on: anti-peptide mouse IgG
- assay.details: Anti-peptide immune response assay (Elisa) on serum of immunized mice
- Format: in vivo, Male C57BL/6 mice
- test.context: column 6; serum dilution 1:1000; read at 450 nm
Where no end group is shown, it is not given here.
Reported Elisa Test pep before B16FO given is given for each of the following substances.
attribute.measured: Elisa Test pep before B16FO given

- -D-R-D-K-L-F-G-F-C-P-T-R-A-D-S- (DRDKLFGFCPTRADS; also: biotinylated, KLH conjugate) [MMP-9 A-3, MMP-9 oligopeptide, biotinylated and conjugated to KLH for immunization]: 2.157
- -D-T-D-D-R-F-G-F- (DTDDRFGF; also: biotinylated, KLH conjugate) [M MP-9 A-2, MMP-9 oligopeptide, biotinylated and conjugated to KLH for immunization]: 1.339
- -C-H-F-P-F-I-F-E-G-R-S-Y-S-A-C- (CHFPFIFEGRSYSAC; cysteine pairing not given here; also: biotinylated, KLH conjugate) [MMP-9 A-1, MMP-9 oligopeptide, biotinylated and conjugated to KLH for immunization]: 1.901

Value source: patent US8067009B1
